# maps each entry to its pEC50
# ASSAYED SYSTEM: CLK3 kinase (Homo sapiens, UniProt P49761)
# Sequence (P49761 whole entry): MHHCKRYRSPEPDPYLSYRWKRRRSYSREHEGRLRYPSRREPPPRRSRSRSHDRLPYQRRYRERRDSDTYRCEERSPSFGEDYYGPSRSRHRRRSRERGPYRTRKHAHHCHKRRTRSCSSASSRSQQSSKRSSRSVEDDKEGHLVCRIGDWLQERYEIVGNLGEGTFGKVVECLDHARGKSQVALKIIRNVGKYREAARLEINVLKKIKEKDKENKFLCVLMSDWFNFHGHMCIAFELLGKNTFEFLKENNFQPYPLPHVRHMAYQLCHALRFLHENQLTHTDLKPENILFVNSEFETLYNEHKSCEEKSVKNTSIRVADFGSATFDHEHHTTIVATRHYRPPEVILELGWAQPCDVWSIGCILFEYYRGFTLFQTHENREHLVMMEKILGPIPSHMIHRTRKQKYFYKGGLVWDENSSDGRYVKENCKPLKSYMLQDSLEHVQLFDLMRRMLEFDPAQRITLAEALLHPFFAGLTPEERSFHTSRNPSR
# TEST DETAILS: CLK3 kinase activity assay (Z-lyte FRET);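 further: kinase activity read as coumarin/fluorescein emission ratio by FRET, unphosphorylated peptide as 0% and phosphorylated peptide as 100% control, values from non-linear regression of dose-response curves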
# CONDITIONS: Z-lyte Ser/Thr 18 peptide, 156 μM ATP, 1 h at room temperature
FYI, pEC50 means -log10 of a concentration in mol per litre.

Example entries begin here.
COMPOUND | pEC50
CN(C)Cc1cncc(-c2ccc3[nH]nc(-c4cc5c(-c6ccccc6F)cncc5[nH]4)c3n2)c1 [compound 337] | 6.96
O=C(Nc1cc2cc(-c3cncc(NCC4(F)CNC4)n3)ncc2cn1)C1CC1 [compound 615] | 7.28

Below: the item to evaluate.
Query string: Looking for the measured pEC50 of Fc1cccc(-c2cncc3[nH]c(-c4n[nH]c5cnc(-c6cncc(OC7CCNCC7)c6)cc45)nc23)c1 [compound 152] , can you help?
Result string: 7.48
